Measured values drawn from PubChem BioAssay AID651650 for this set.

biological target: Neuropilin-1 (Homo sapiens) (UniProt O14786); assay: blockers of CendR peptide binding to NRP-1 – biochemical, FP and AlphaScreen panel, dose response (AID 651650); details: NRP-1 b1b2 / RPARPAR peptide binding, FP or AlphaScreen; run 1, at 100 µM (top of the series)
Sequence (O14786 whole entry, looked up): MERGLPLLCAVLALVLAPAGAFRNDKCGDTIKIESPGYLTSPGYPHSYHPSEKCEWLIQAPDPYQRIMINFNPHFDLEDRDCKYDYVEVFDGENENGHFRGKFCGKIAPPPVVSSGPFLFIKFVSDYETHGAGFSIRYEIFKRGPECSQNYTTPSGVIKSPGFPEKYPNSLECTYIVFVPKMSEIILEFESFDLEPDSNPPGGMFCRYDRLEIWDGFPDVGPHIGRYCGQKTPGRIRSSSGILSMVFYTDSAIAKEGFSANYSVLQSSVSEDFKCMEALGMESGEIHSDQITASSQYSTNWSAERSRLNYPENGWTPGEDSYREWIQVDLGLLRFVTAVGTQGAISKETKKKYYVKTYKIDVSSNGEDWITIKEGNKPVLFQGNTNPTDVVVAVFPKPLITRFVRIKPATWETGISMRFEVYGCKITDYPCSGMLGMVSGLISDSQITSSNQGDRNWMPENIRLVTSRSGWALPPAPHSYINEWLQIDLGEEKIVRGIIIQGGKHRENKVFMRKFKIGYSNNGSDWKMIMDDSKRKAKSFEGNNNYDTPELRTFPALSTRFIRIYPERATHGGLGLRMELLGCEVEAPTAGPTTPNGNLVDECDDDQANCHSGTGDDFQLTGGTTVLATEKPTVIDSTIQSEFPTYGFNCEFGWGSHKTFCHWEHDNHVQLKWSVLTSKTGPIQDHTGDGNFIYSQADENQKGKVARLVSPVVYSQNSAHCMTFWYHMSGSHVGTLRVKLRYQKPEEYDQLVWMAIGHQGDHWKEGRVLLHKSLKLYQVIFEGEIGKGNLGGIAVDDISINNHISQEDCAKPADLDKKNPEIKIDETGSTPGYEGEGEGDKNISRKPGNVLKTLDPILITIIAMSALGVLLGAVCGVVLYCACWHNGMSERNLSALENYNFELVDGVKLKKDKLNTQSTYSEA
Classes based on inhibition: lower range: < 20%; middle range: ≥ 20% and < 60%; upper range: ≥ 60%

{"columns": ["compound", "label_class"],
 "data": [
  ["C=C1CCN(C(C(=O)OC)C(C)C)S(=O)(=O)c2ccc(F)cc21 (configuration not stated)", "upper range"],
  ["CCOc1ccc(N2C(=O)CC(N3CCN(c4ccc(Cl)cc4)CC3)C2=O)cc1 (configuration not stated)", "upper range"],
  ["CC1CCN(C(=O)c2[nH]cnc2C(=O)NCc2ccc(CNC(=O)OC(C)(C)C)cc2)CC1", "middle range"],
  ["CCOC(=O)c1cnc(-c2ccccc2)nc1Oc1ccc(OC)cc1", "upper range"]
]}

Determine which band this compound sits in: C[C@@H](NC(=O)c1[nH]cnc1C(=O)Nc1cccc(Cl)c1)c1ccccc1
middle range

Next compound up: O=C(Cn1ccc(NC(=O)OCc2ccccc2)nc1=O)NCCCn1ccnc1
middle range

Next compound up: c1ccc2c3n(nc2c1)CCCO3
middle range

Next compound up: O=C(NNC(=O)c1ccccc1Cl)c1cccnc1
upper range

###

target: Neuropilin-1 (Homo sapiens) (UniProt O14786); assay: blockers of CendR peptide binding to NRP-1 – biochemical, FP and AlphaScreen panel, dose response (AID 651650); conditions: NRP-1 b1b2 / RPARPAR peptide binding, FP or AlphaScreen; run 1, at 100 µM (top of the series)
Please use Criterion met whenever inhibition is not below 40%, and Criterion not met whenever it is.

{"columns": ["molecule", "assayed_system", "label_class"],
 "data": [
  ["COc1cc(C(=O)OCC(=O)Nc2c(F)c(F)c(F)c(F)c2F)cc(OC)c1OC", "Neuropilin-1 (Homo sapiens) (UniProt O14786)", "Criterion not met"],
  ["CCn1ncc(Br)c1C(=O)N(C)C12CC3CC(CC(C3)C1)C2", "Neuropilin-1 (Homo sapiens) (UniProt O14786)", "Criterion met"]
]}

Please check the record CCOc1c2ccc(C(=O)NCCc3cccs3)cc2nn1CC and state if its inhibition is at or above 40%.
Criterion not met

Next molecule up: O=C(Nc1cc(C(F)(F)F)ccc1N1CCCC1)C1CC(=O)N(Cc2ccccc2)C1 (configuration not stated)
Criterion not met

Next molecule up: COc1ccc(Cl)cc1NC(=O)C(C)N1CCc2ccccc21 (configuration not stated)
Criterion met

Next molecule up: Cn1c(=O)c2c(ncn2CC(COCc2ccccc2)OCc2ccccc2)n(C)c1=O (configuration not stated)
Criterion met

Next molecule up: CN1CCC(=NNC(=O)c2ccco2)CC1
Criterion not met

###

biological target: Neuropilin-1 (Homo sapiens) (UniProt O14786); test: blockers of CendR peptide binding to NRP-1 – biochemical, FP and AlphaScreen panel, dose response (AID 651650); conditions: NRP-1 b1b2 / RPARPAR peptide binding, FP or AlphaScreen; run 1, at 100 µM (top of the series)
experimental_endpoint: inhibition (%)
Give bare numbers, in %.

{"columns": ["smiles_string", "assayed_system", "readout_unit", "inhibition"],
 "data": [
  ["CN(C(=O)COC(=O)c1cnc(Cl)c(Cl)c1)C1CCCCC1", "Neuropilin-1 (Homo sapiens) (UniProt O14786)", "%", 49.2],
  ["COc1ccccc1COc1ccc2c(C)c(CC(=O)O)c(=O)oc2c1C", "Neuropilin-1 (Homo sapiens) (UniProt O14786)", "%", 44.2],
  ["Nc1ncnc2[nH]c(=S)[nH]c12", "Neuropilin-1 (Homo sapiens) (UniProt O14786)", "%", -4.05]
]}

Give measured inhibition for every item shown.
1. O=C(COc1ccc(Br)cc1CO)Nc1ccc(F)cc1
2. O=C(O)c1ccccc1SCC(=O)N1CCCCC1

-9.04
52.9

###

target: Neuropilin-1 (Homo sapiens) (UniProt O14786); assay: blockers of CendR peptide binding to NRP-1 – biochemical, FP and AlphaScreen panel, dose response (AID 651650); settings: NRP-1 b1b2 / RPARPAR peptide binding, FP or AlphaScreen; run 1, at 100 µM (top of the series)
experimental_endpoint: inhibition (%)
One number for each entry, in %.

{"columns": ["compound", "inhibition / %"],
 "data": [
  ["Cc1ccc(COn2c(-c3ccc(Cl)cc3Cl)nc3ncccc32)cc1", 7.33],
  ["CC(C)(C)N(NC(=O)Nc1ccc(Cl)cc1)C(=O)c1ccccc1", 48.3],
  ["COc1ccc(-c2cc(C)no2)cc1S(=O)(=O)NCc1cccc(C)c1", 23.2],
  ["Cn1cccc1C1Nc2ccccc2NC2=C1C(=O)CC(C)(C)C2 (stereo not drawn)", 12.9],
  ["CN(C)Cc1cc(C(F)(F)F)ccc1C(O)(c1ccccc1)c1ccccc1", -5.25],
  ["Cc1ccccc1NC(=S)NC(=O)COc1ccccc1C", 98.2],
  ["CC(=O)NC(c1cccc(F)c1)c1nc(-c2cccc(C(F)(F)F)c2)cs1 (stereo not drawn)", 9.72],
  ["COc1cc2oc(=O)ccc2cc1[C@@H](O)[C@@H]1OC(C)(C)OC1(C)C", 10.7]
]}

Give measured inhibition for every item shown.
1. CCOC(=O)/C=C/COc1ccccc1[N+](=O)[O-]
2. NS(=O)(=O)c1ccc(CNC(=S)NCc2ccc(F)cc2)cc1

[29.2, 42.3]

Give measured inhibition for every item shown.
1. CC(C)(C)n1nc(-c2ccc(F)cc2)c2c(N)ncnc21
2. Oc1ccc(-c2nc3ncccn3c2Nc2ccc3c(c2)OCO3)cc1
3. CCOC(=O)N1CCN(C(=O)c2cc(COc3ccc(OC)cc3Cl)on2)CC1
4. Cc1cc2cc(CNC(=O)c3ccc(S(=O)(=O)N4CCOCC4)cc3)ccc2n1C

1. 39.3
2. 41.8
3. 37.8
4. 18.3

Give measured inhibition for every item shown.
1. C[C@@H]1CC=C[C@H]2[C@H]1C(=O)N(Cc1ccccc1)[C@H]2c1ccc(/C=C/c2ccccc2)cc1F
2. CCOc1ccc(-n2c(Cc3cc(=O)[nH]c(=O)[nH]3)nnc2SC(C)C)cc1
3. CCC(=O)Nc1nc2nc(-c3ccccc3)cc(-c3ccccc3)n2n1
4. COc1c2ccc(C(=O)NCc3cc(C(F)(F)F)cc(C(F)(F)F)c3)cc2nn1C
5. COc1ccc(Cl)cc1S(=O)(=O)N1CCN(CC(=O)C(C)(C)C)CC1

48.3
59.6
37.2
38.2
-4.16

###

biological target: Neuropilin-1 (Homo sapiens) (UniProt O14786); assay: blockers of CendR peptide binding to NRP-1 – biochemical, FP and AlphaScreen panel, dose response (AID 651650); details: NRP-1 b1b2 / RPARPAR peptide binding, FP or AlphaScreen; run 1, at 100 µM (top of the series)
experimental_endpoint: inhibition (%)
Numbers only, in %.

These recorded examples may help you get a feel for the data.
{"columns": ["molecule", "experimental_endpoint", "readout_unit", "numeric_readout"],
 "data": [
  ["O=C(NCc1ccccc1)c1cccc(S(=O)(=O)N2CCCCC2)c1", "inhibition", "%", 61.2],
  ["CCOC(=O)Cc1cnc(NC(=O)NC(C(=O)OCC)(c2ccccc2)C(F)(F)F)s1 (centres undefined)", "inhibition", "%", 99.2],
  ["Cc1ccc(Cn2c(C(C)Nc3nc(-c4ccc(Cl)c([N+](=O)[O-])c4)cs3)nc3cc(C(F)(F)F)ccc32)cc1 (centres undefined)", "inhibition", "%", 41.6]
]}

Give measured inhibition for every item shown.
1. Cc1ccc2c(c1)C(c1ccncc1)=NNC(c1ccc(F)cc1)=N2
2. NC(=S)NNC(=S)Nc1ccccc1
3. c1ccc(OCCCN2CCCC2)cc1
4. Cc1cccc(C)c1Nc1nnc(SCC(=O)Nc2cc(S(=O)(=O)N3CCCCC3)ccc2Cl)s1
5. COc1ccc(C2CC(C(F)(F)F)n3nc(C(=O)O)c(Cl)c3N2)cc1OC (centres undefined)
6. CN(Cc1cnn(C)c1)C(=O)c1cc2ccccc2oc1=O
7. Cc1cccc(NC(=O)c2ccc(OCc3c(C)noc3C)cc2)c1

1: 36.3; 2: 9.47; 3: 53.9; 4: -15.9; 5: 46.4; 6: 29.1; 7: 93.6

###

molecular target: Neuropilin-1 (Homo sapiens) (UniProt O14786); experiment: blockers of CendR peptide binding to NRP-1 – biochemical, FP and AlphaScreen panel, dose response (AID 651650); details: NRP-1 b1b2 / RPARPAR peptide binding, FP or AlphaScreen; run 1, at 100 µM (top of the series)
Please use rule met whenever inhibition is not below 50%, and rule not met whenever it is.

Some solved entries appear below for comparison.
{"columns": ["molecule", "label_class"],
 "data": [
  ["COc1ccc([C@H]2/C=C\\CN(C(=O)C3CC3)[C@@H](C)C(=O)N2Cc2ccc(F)cc2)cc1", "rule not met"],
  ["CCc1cc(C(=O)OC)c(NC(=O)c2ccoc2C)s1", "rule not met"]
]}

Please check the record COCCNC(=S)N(CCc1c(C)[nH]c2ccc(F)cc12)Cc1cccs1 and state if its inhibition is at or above 50%.
rule not met
